Some sequences, each annotated with its measured recombinant UMI read abundance (log10).
# RUN_DESCRIPTION: recombinant UMI read abundance after kanamycin selection (control-corrected) (log10(CPM+1)); higher = more efficient recombination; extreme values may be limits of the assay; sequences stand for … in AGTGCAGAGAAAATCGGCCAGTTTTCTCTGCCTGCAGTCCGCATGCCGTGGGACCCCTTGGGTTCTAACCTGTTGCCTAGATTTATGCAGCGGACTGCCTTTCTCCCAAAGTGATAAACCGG…AGGTTGGTTTCACT; site = the 11-nt donor;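 note: IS621 bridge recombinase in Escherichia coli cells against a fixed T5 target plasmid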
Enter a number only.

Here is how some sequences turned out for recombinant UMI read abundance (log10).
{"columns": ["SEQUENCE_STRING", "OBSERVED_PROPERTY", "MEAS_VALUE"],
 "data": [
  ["GTAGTATCATGGACCGGTTTTCCCGGTAATCCGTATTTGAT (site GTAGTATCTAT)", "recombinant UMI read abundance (log10)", 3.08],
  ["GGCATTCCATGGACCGGTTTTCCCGGTAATCCGTATTTGAA (site GGCAATCCTTT)", "recombinant UMI read abundance (log10)", 0],
  ["CTTGTATCATGGACCGGTTTTCCCGGTAATCCGTATTTGAC (site CTGGTATCTGT)", "recombinant UMI read abundance (log10)", 0],
  ["TCCCACACATGGACCGGTTTTCCCGGTAATCCGTATTTGTA (site TCCCACACTTA)", "recombinant UMI read abundance (log10)", 0.42],
  ["CTGGCAACATGGACCGGTTTTCCCGGTAATCCGTATTTGCA (site CTGGTAACTTG)", "recombinant UMI read abundance (log10)", 0]
]}

Here's the next entry for you.
Enquiry: Could you please provide reported recombinant UMI read abundance (log10) for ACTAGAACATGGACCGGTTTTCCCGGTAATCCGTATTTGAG (site ACTACAACTCT) ? Thanks!
Return: 0.383
